Here, each record is paired with measured protein stability index data.
B1: MED27 (parent)
chain: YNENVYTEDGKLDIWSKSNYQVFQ

Variants of: B1
Test: protein stability index of a GFP-peptide fusion (GPS, HEK-293T) (PSI 1-6); higher = more stable;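 also: lentivirally expressed fusions sorted by FACS into six bins by GFP to DsRed ratio, PSI derived from sequencing read proportions per bin multiplied by bin number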
Conditions: c terminus: a fixed tail appended
# answer = number (no unit)

YNENVYTEDGSLDIWSKSNYQVFQ 2.45
YNENVYTEDGLLDIWSKSNYQVFQ 1.59
YNENVRTEDGKLDIWSKSNYQVFQ 2.48
YNENVYTEDGKLDQWSKSNYQVFQ 3.07
YNENVYTEDGKLDVWSKSNYQVFQ 2.62

Query: Given the variant YNENVYTEDGKLDIWSRSNYQVFQ , what is its reported protein stability index?
Result: 1.95

Query: Item: FNENVYTEDGKLDIWSKSNYQVFQ
Result: 2.27

Query: Item: YNENVYTEDGKLDIWSKSGYQVFQ
Result: 1.96

All figures here come from the supplement of paper PMC10567573.
